The reported numbers originate from patent US9139568B2.

target-entity: P70S6K (Homo sapiens (Human), UniProt P23443, T412E)
Sequence (P23443 1-421 T412E): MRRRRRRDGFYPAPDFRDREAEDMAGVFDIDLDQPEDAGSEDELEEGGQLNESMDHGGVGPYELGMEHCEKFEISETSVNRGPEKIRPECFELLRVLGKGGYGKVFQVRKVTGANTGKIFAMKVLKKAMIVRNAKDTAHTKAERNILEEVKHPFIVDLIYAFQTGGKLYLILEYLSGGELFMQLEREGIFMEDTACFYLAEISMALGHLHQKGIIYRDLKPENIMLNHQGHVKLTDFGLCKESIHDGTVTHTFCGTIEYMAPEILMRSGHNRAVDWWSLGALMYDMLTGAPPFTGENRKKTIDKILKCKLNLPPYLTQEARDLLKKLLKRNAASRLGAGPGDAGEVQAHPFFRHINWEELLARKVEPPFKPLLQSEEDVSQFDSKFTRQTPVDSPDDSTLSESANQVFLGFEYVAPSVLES
assay-overview: P70S6K Enzyme Assay
experimental-parameters: P70S6K T412E mutant, 24 μM ATP, mobility shift (Caliper)
pIC50: −log10 of the molar value.
Grouping rule (pIC50): group A (below 6), group B (6 to below 7), group C (7 or more)

Check out these entries, answers already filled in.
- compound: "NC(=O)c1ccc(N2CCC(N)(CNC(=O)c3ccc(F)cc3F)C2)c2cncnc12 (racemic)"
  category-label: "group A"
- compound: "CNC[C@@H](Nc1ccc(C(N)=O)c2ncccc12)c1cccc(F)c1"
  category-label: "group A"
- compound: "NC(=O)c1ccc(N2CC[C@@H](CNC(=O)c3ccc(F)c(F)c3)C2)c2cncnc12 (single isomer, unassigned)"
  category-label: "group B"
- compound: "NC(=O)c1ccc(NC2CNCCC2c2ccc(F)cc2)c2cncnc12 (stereo not shown)"
  category-label: "group B"
- compound: "NC(=O)c1ccc(N2CC[C@H](c3cccc(F)c3)[C@@H](N)C2)c2cncnc12 (racemic)"
  category-label: "group A"
- compound: "NC(=O)c1ccc(N2CC[C@](N)(C(=O)Nc3ccc(F)c(C(F)(F)F)c3)C2)c2cncnc12 (single isomer, unassigned)"
  category-label: "group B"
- compound: "NC(=O)c1ccc(N2CC[C@H](c3ccc(F)cc3)[C@@H](N)C2)c2cncnc12 (racemic)"
  category-label: "group A"
- compound: "NC(=O)c1ccc(NCc2cc(F)c(F)c(F)c2)c2cccnc12"
  category-label: "group A"

State the class of the compound shown: `NC(=O)c1ccc(NC2(c3ccccc3)CNC2)c2cccnc12`
group A

State the class of the compound shown: NC(=O)c1ccc(N[C@H]2CNCC[C@@H]2c2ccc(F)c(Cl)c2)c2cncnc12 (single isomer, unassigned)
group C

State the class of the compound shown: NC(=O)c1ccc(NC2CNCC2c2cccc(C(F)(F)F)c2)c2cncnc12 (stereo not shown)
group C

State the class of the compound shown: NC(=O)c1ccc(N2CC[C@H](c3cccc(F)c3)[C@H](N)C2)c2cncnc12 (racemic)
group A

State the class of the compound shown: `NC(=O)c1ccc(NCc2cccnc2)c2cncnc12`
group A
